Test system: Caco-2 monolayers
Experiment: in vitro
Conditions: human, Caco-2
Where a SMILES comes first, the peptide text is derived from it. [ ]: non-standard residue; d: D form. NMeTrp(1-Me) = CN[C@@H](Cc1cn(C)c2ccccc12)C(=O)O; NMeLeu(5-OH,4R) = CN[C@@H](C[C@@H](C)CO)C(=O)O; Phe(βR-OMe) = CO[C@H](c1ccccc1)[C@H](N)C(=O)O; NMeL = CN[C@@H](CC(C)C)C(=O)O; Pra = C#CC[C@H](N)C(=O)O
MEASURED_PROPERTY: Caco-2 Int. Perm
Respond numerically, and do not add a unit to the figure.

// query Identify measured Caco-2 Int. Perm associated with CO[C@H](c1ccccc1)[C@@H]1NC(=O)[C@H](C)NC(=O)[C@H](C[C@@H](C)CO)N(C)C(=O)[C@H](Cc2cn(C)c3ccccc23)NC(=O)[C@H](Cc2cn(CCOCCOCCn3cc(C[C@@H]4NC(=O)[C@H](CC(C)C)N(C)C(=O)[C@H](C(C)C)NC(=O)[C@H]([C@H](OC)c5ccccc5)NC(=O)[C@H](C)NC(=O)[C@H](C[C@@H](C)CO)N(C)C(=O)[C@H](Cc5cn(C)c6ccccc56)NC4=O)nn3)nn2)NC(=O)[C@H](CC(C)C)N(C)C(=O)[C@H](C(C)C)NC1=O [Compound 11]
// result 2.9

// query Identify measured Caco-2 Int. Perm associated with CCCCCn1cc(C[C@@H]2NC(=O)[C@H](CC(C)C)N(C)C(=O)[C@H](C(C)C)NC(=O)[C@H]([C@H](OC)c3ccccc3)NC(=O)[C@H](C)NC(=O)[C@H](C[C@@H](C)CO)N(C)C(=O)[C@H](Cc3cn(C)c4ccccc34)N(C)C2=O)nn1 [Compound 25]
// result 11.4

// query Identify measured Caco-2 Int. Perm associated with C#CC[C@@H]1NC(=O)[C@H](CC(C)C)N(C)C(=O)[C@H](C(C)C)NC(=O)[C@H]([C@H](OC)c2ccccc2)NC(=O)[C@H](C)NC(=O)[C@H](C[C@@H](C)CO)N(C)C(=O)[C@H](Cc2cn(C)c3ccccc23)N(C)C1=O [Compound 20] (cyclo(A[Phe(βR-OMe)]V[NMeL][Pra][NMeTrp(1-Me)][NMeLeu(5-OH,4R)]))
// result 15.7
